# experimental_target: human 5HT transporter (Homo sapiens, UniProt P31645)
# Construct: host or cells: HEK cells
# Sequence (P31645 whole entry): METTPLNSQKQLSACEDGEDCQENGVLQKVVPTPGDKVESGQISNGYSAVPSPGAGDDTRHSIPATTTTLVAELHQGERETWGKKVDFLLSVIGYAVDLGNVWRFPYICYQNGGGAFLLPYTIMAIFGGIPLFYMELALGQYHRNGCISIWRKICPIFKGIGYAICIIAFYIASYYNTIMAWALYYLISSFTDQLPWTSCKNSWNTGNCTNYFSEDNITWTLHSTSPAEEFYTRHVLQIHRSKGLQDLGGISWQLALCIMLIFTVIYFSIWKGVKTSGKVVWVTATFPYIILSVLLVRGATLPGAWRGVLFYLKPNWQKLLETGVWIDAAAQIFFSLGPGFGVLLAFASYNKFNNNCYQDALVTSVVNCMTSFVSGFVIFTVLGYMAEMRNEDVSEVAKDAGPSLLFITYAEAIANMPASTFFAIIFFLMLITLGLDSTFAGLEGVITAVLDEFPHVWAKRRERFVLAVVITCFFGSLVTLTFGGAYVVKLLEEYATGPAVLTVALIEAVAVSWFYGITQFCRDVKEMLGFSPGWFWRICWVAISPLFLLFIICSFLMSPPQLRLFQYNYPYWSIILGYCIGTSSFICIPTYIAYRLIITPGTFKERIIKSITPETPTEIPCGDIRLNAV
# protocol_notes: Binding experiment for 5-HT transporter ([3H]Paroxetine)
# experimental_parameters: transfected HEK cell membranes, [3H]Paroxetine
Classification field: y = pIC50 5HTT at or over 7; n = pIC50 5HTT under 7.

As a guide, the following entries are already answered.
compound	category
COc1cc2c(cc1OC)C1=NOC(CN3CCC(c4c[nH]c5ccc(C#N)cc45)CC3)C1CO2 (racemic)	y
COc1cc2c(cc1OC)C1=NOC(CN3CC=C(c4c[nH]c5ccc(F)cc45)CC3)C1CO2 (single isomer, unassigned) [Compound 3]	y
COc1cc2c(cc1OC)C1=NOC(CN3CC=C(c4c[nH]c5cc(F)ccc45)CC3)C1CO2 (racemic)	y
COc1cc2c(cc1OC)C1=NOC(CN3CCC(c4c[nH]c5cc(F)ccc45)CC3)C1CO2 (racemic) [Compound 26]	y
CCOC(=O)CNC(=O)Nc1ccc2[nH]cc(C3=CCN(CC4ON=C5c6cc(OC)c(OC)cc6OCC54)CC3)c2c1 (racemic)	n
COc1cc2c(cc1OC)C1=NOC(CN3CC=C(c4c[nH]c5ccc(Br)cc45)CC3)C1CO2 (racemic)	n

INPUT: Item COc1cc2c(cc1OC)C1=NOC(CN3CCC(c4c[nH]c5c(F)cccc45)CC3)C1CO2 (racemic) with pIC50 5HTT of 7 or above?
OUTPUT: n

INPUT: Item COc1cc2c(cc1OC)C1=NOC(CN3CC=C(c4c[nH]c5cccc(F)c45)CC3)C1CO2 (racemic) [Compound 9] with pIC50 5HTT of 7 or above?
OUTPUT: y

INPUT: Item COc1cc2c(cc1OC)C1=NOC(CN3CCC(c4c[nH]c5ccc(Br)cc45)CC3)C1CO2 (racemic) with pIC50 5HTT of 7 or above?
OUTPUT: n

INPUT: Item COCC(=O)Nc1ccc2[nH]cc(C3=CCN(CC4ON=C5c6cc(OC)c(OC)cc6OCC54)CC3)c2c1 (racemic) with pIC50 5HTT of 7 or above?
OUTPUT: n

INPUT: Item COc1cc2c(cc1OC)C1=NOC(CN3CC=C(c4c[nH]c5ccc(NS(C)(=O)=O)cc45)CC3)C1CO2.O=C(O)C(F)(F)F (racemic) with pIC50 5HTT of 7 or above?
OUTPUT: n

INPUT: Item COc1cc2c(cc1OC)C1=NOC(CN3CCC(c4c[nH]c5ccc(Cl)cc45)CC3)C1CO2 (racemic) with pIC50 5HTT of 7 or above?
OUTPUT: y

---

Overview of reported IC50 across a group of compounds:
# experimental_target: Human 5HT1A receptor (Homo sapiens, UniProt P08908)
# Construct: expressed in transfected cells; host or cells: L929 cells (stably transfected)
# Sequence (P08908 whole entry): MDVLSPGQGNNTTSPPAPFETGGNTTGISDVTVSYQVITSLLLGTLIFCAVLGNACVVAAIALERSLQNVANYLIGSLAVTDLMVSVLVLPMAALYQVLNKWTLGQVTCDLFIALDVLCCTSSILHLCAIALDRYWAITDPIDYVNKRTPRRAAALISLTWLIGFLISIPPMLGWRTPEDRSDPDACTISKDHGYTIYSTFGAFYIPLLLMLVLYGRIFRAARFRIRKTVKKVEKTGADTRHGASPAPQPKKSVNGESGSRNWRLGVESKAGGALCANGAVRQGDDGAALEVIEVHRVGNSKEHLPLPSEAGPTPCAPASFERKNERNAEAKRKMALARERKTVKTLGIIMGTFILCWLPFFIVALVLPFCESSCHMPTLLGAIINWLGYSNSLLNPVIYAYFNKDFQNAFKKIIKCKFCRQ
# protocol_notes: Binding experiment for 5-HT1A receptor ([3H]8OHDPAT)
# experimental_parameters: transfected L929 cell membranes, [3H]8OHDPAT; read-out: pIC50 5-HT1A (converted)
Quick note: give the figure in nM, leave out the unit.

compound	units_text	endpoint_value
COc1cc2c(cc1OCCOC(C)=O)OCC1C2=NOC1CN1CCC(c2c[nH]c3ccc(F)cc23)CC1 (racemic) [Compound 48]	nM	1.58
COc1cc2c(cc1OC)C1=NOC(CN3CC=C(c4c[nH]c5ccc(F)cc45)CC3)C1CO2 (racemic) [Compound 1]	nM	31.6
COCCOCOc1ccc2[nH]cc(C3=CCN(CC4ON=C5c6cc(OC)c(OC)cc6OCC54)CC3)c2c1 (stereo not shown) [Compound 62]	nM	63.1

Consider the additional compound presented here.
// IC50 lookup, compound = COc1ccc2[nH]cc(C3CCN(CC4ON=C5c6cc(OC)c(OC)cc6OCC54)CC3)c2c1 (racemic) [Compound 8] , result: 7.94

---

# experimental_target: Human Dopamine D2L receptor (Homo sapiens, UniProt P14416)
# Construct: expressed in transfected cells; host or cells: CHO cells
# Sequence (P14416 whole entry): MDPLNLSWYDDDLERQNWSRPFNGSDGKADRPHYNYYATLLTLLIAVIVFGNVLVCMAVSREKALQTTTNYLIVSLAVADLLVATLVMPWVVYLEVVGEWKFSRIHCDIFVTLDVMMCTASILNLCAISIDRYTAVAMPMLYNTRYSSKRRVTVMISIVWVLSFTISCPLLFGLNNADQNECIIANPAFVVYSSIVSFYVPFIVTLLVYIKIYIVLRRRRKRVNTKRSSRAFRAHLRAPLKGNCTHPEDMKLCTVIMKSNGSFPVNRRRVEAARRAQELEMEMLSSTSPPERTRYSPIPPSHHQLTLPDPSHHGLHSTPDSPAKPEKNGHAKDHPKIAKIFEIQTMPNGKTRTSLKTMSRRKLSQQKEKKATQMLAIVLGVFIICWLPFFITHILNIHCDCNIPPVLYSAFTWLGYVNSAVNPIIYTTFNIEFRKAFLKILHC
# protocol_notes: Binding experiment for dopamine D2 receptor ([3H]Spiperone)
# experimental_parameters: D2L-transfected CHO cell membranes, read-out: pIC50 D2 (converted)
One threshold, 300 nM, splits the recorded IC50 values: lower ones are Met, equal or higher ones are Not met.

INPUT: Check if IC50 falls below 300 nM for COc1cc2c(cc1OCCO)OCC1C2=NOC1CN1CCC(c2c[nH]c3ccc(F)cc23)CC1 (racemic) [Compound 47] .
OUTPUT: Met

INPUT: Check if IC50 falls below 300 nM for COc1cc2c(cc1OC)C1=NOC(CN3CC=C(c4c[nH]c5ccc(-c6ccccc6)cc45)CC3)C1CO2 (racemic) [Compound 22] .
OUTPUT: Not met

INPUT: Check if IC50 falls below 300 nM for COc1cc2c(cc1OC)C1=NOC(CN3CC=C(c4c[nH]c5ccc(NC(C)=O)cc45)CC3)C1CO2 (racemic) [Compound 40] .
OUTPUT: Not met

INPUT: Check if IC50 falls below 300 nM for COc1cc2c(cc1OC)C1=NOC(CN3CCC(c4c[nH]c5ccc(C)cc45)CC3)C1CO2 (racemic) [Compound 31] .
OUTPUT: Not met

---

# experimental_target: Human 5HT1A receptor (Homo sapiens)
# Construct: expressed in transfected cells; host or cells: L929 cells (stably transfected)
# protocol_notes: Binding experiment for 5-HT1A receptor ([3H]8OHDPAT)
# experimental_parameters: transfected L929 cell membranes, [3H]8OHDPAT
reported_metric: pIC50 5-HT1A
// keep it numeric: no unit symbol after the value

# example entries with known answers
molecule	pIC50 5-HT1A
COc1cc2c(cc1OC)C1=NOC(CN3CCC(c4c[nH]c5cc(F)ccc45)CC3)C1CO2 (single isomer, unassigned) [Compound 36]	8.0
COc1cc2c(cc1OC)C1=NOC(CN3CC=C(c4c[nH]c5cccc(F)c45)CC3)C1CO2 (single isomer, unassigned) [Compound 13]	8.7
Fc1ccc2c(C3CCN(CC4ON=C5c6ccc(NCCN7CCCC7)cc6OCC54)CC3)c[nH]c2c1 (racemic)	7.7
COc1cc2c(cc1OC)C1=NOC(CN3CC=C(c4c[nH]c5cccc(F)c45)CC3)C1CO2 (racemic) [Compound 9]	8.2
COCC(=O)Nc1ccc2[nH]cc(C3=CCN(CC4ON=C5c6cc(OC)c(OC)cc6OCC54)CC3)c2c1 (racemic)	8.3

Simply: COc1cc2c(cc1OC)C1=NOC(CN3CC=C(c4c[nH]c5cc(F)ccc45)CC3)C1CO2 (racemic) , Human 5HT1A receptor (Homo sapiens), pIC50 5-HT1A = 7.2

Simply: COc1cc2c(cc1OC)C1=NOC(CN3CCC(c4c[nH]c5ccc(C#N)cc45)CC3)C1CO2 (racemic) , Human 5HT1A receptor (Homo sapiens), pIC50 5-HT1A = 8.7

Simply: Fc1ccc2c(C3CCN(CC4ON=C5c6ccc(N7CCOCC7)cc6OCC54)CC3)c[nH]c2c1 (racemic) , Human 5HT1A receptor (Homo sapiens), pIC50 5-HT1A = 7.5

Simply: COCCOCOc1cc2c(cc1OC)C1=NOC(CN3CC=C(c4c[nH]c5ccc(F)cc45)CC3)C1CO2 (racemic) , Human 5HT1A receptor (Homo sapiens), pIC50 5-HT1A = 6.0

Simply: COc1cc2c(cc1OC)C1=NOC(CN3CC=C(c4c[nH]c5ccc(F)cc45)CC3)C1CO2 (single isomer, unassigned) [Compound 3] , Human 5HT1A receptor (Homo sapiens), pIC50 5-HT1A = 6.8

---

# experimental_target: Human Dopamine D2L receptor (Homo sapiens, UniProt P14416)
# Construct: expressed in transfected cells; host or cells: CHO cells
# protocol_notes: Binding experiment for dopamine D2 receptor ([3H]Spiperone)
# experimental_parameters: D2L-transfected CHO cell membranes
Overview of reported pIC50 D2 across a group of molecules:
// keep it numeric: no unit symbol after the value

// pIC50 D2 lookup, molecule = COc1cc2c(cc1OC)C1=NOC(CN3CCC(c4c[nH]c5cc(F)ccc45)CC3)C1CO2 (single isomer, unassigned) [Compound 35] , result: 6.9

// pIC50 D2 lookup, molecule = COc1cc2c(cc1OC)C1=NOC(CNCCCc3c[nH]c4ccc(F)cc34)C1CO2 (single isomer, unassigned) [Compound 4] , result: 6.1

// pIC50 D2 lookup, molecule = COCCOCOc1cc2c(cc1OC)C1=NOC(CN3CC=C(c4c[nH]c5ccc(F)cc45)CC3)C1CO2 (racemic) , result: 7.9

// pIC50 D2 lookup, molecule = COc1cc2c(cc1OC)C1=NOC(CN3CC=C(c4c[nH]c5ccc(C)cc45)CC3)C1CO2 (racemic) , result: 6.4

// pIC50 D2 lookup, molecule = COc1cc2c(cc1OC)C1=NOC(CN3CCC(c4c[nH]c5cc(F)ccc45)CC3)C1CO2 (single isomer, unassigned) [Compound 36] , result: 7.5
